# System: A549
# Assay Info: Cytotoxicity against human A549 cells by MTT assay
# Type: functional, cell-based
pIC50: −log10 of the molar value.

| Molecule | pIC50 |
| --- | --- |
| CC1=C[C@@]2(O)C(=O)[C@@H](C)C[C@@H]3[C@H](CC[C@](C)(O)/C=C/2[C@@H]1O)C3(C)C | 4.90 |
| C[C@H]1C[C@@H]2[C@H](CC[C@](C)(O)/C=C3\[C@H](O)[C@@H](C)C[C@@]3(O)C1=O)C2(C)C | 5.20 |

Reference source for all entries: ChEMBL document CHEMBL1909579
